meta.source: a melting point compilation (Tetko et al.; mined from patent text by program, amines drawn as free bases though some values may be those of a salt)

Below, each entry is listed with its recorded melting point.

Below: 3 compounds and their reported melting point.
CC(C)=CCc1cc2cc(-c3cc(O)cc(O)c3)oc2cc1O :: 183 to 184 °C
COc1ccc(OC)c2c1COC2O (configuration not stated) :: 156 to 158 °C
N#CSCCNc1ccc(Cl)cc1[N+](=O)[O-] :: 154 to 155 °C

Quick check: melting point of O=C(Cc1ccc(Br)cc1)OCc1ccccc1 ?
47.5 to 48 °C

Could you do the same for C=C(CO)C(C(=O)OC(c1ccccc1)c1ccccc1)N1C(=O)C2N=C(Cc3ccccc3)OC21 (configuration not stated) , please?
40 to 55 °C

Repeat for the following compound: COc1ccc2[nH]cc(CC3=CCCN(CCCC(=O)c4cccs4)C3)c2c1
140 to 150 °C

---

Measured melting point by item

Answered cases to consult:
CC1=C(C(=O)OCCN(C)Cc2ccccc2)C(c2cccc([N+](=O)[O-])c2)C(P2(=O)OCCCO2)=C(C)N1 (centres undefined) :: 139 to 140 °C
CCCCCCCNC(=O)N(C)c1cccc(-c2ccc(CCC(=O)NO)cc2)c1 :: 100 to 101 °C
CCOC(=O)c1ncc2[nH]c3c(C(C)(C)C)cc(C(C)(C)C)cc3c2c1C :: 260 to 263 °C
Cc1ccc2c3c(ccc2n1)OCC(CN1CC=C(c2c[nH]c4ccccc24)CC1)O3 (centres undefined) :: 210 °C
CCOC(=O)C=Cc1ccc(OCCc2nc(-c3ccccc3)oc2C)cc1 :: 114 to 115 °C
CCCC(=O)Nc1n[nH]c2c([N+](=O)[O-])c(Br)ccc12 :: 248 °C
Cc1cccc(NC(=O)Nc2ccc(-c3c(C(N)=O)[nH]c4ccccc34)cc2)c1 :: 140 to 142 °C
Nc1nc(-c2cc(Cl)ccc2Cl)nc(N2CCNCC2)n1 :: 163 to 165 °C

Given COc1cc(C(C)=O)ccc1OCCCCCl , state its recorded melting point.
68.5 to 70.5 °C

Now this one: Cc1cc(-c2cc(N)n3nc(-c4ccco4)nc3c2)ccn1
100 to 101 °C

Ok, now CC(=O)Nc1cccc(C(C)(C)O)c1CO
138 °C

Then this compound: CCCCOC(=O)c1ccc2ccc(C)nc2c1OC(=O)C(C)(C)C
52 °C

Now the compound COC[C@]12CCC(=O)C=C1CC[C@@H]1[C@@H]2CC[C@]2(C)[C@@H](C(=O)CO)CC[C@@H]12
148 to 149 °C

Continue with COc1ccc2c(Cc3c(Cl)cncc3Cl)nnc(Nc3nccs3)c2c1
218 to 220 °C

---

readout_kind: melting point

Please review the following examples before continuing.
CCOC(=O)c1noc([C@@H](Cc2ccc3ccccc3c2)N(C)C(=O)OC(C)(C)C)n1 :: 99 to 102 °C
Cc1c(Nc2c(C#N)cnc3scc(C)c23)ccc2[nH]ccc12 :: 261 °C
C=CCOc1ccc(C(=O)C=Cc2cc(OC)c(C)c(OC)c2)cc1 :: 143 to 144 °C

Form field: reported melting point of CCN(CC)Cc1cc(NC(=O)Nc2ccc(Oc3cc(NC)ncn3)cc2)cc(C(F)(F)F)c1
68 to 70 °C

Now this one: Cc1cc(C#N)cc(C(=O)c2c(C(C)C)c(=O)[nH]c(=O)n2CC2(CC(N)=O)CC2)c1
283 to 285 °C

Next: CS(=O)c1csc(C(=O)C2C(=O)N(C(N)=O)c3ccc(Cl)cc32)c1 (stereo not drawn)
204 to 206 °C

// repeat for CCN1C(=O)CCC2(CCC(=O)c3ccccc32)C1=O (stereo not drawn) and report
85.5 to 89 °C

Further, for O=C1C=CC(c2ccccc2)(c2ccccc2)C=C1O ?
145 °C

And what about the molecule CC(NC(=O)C(F)(F)F)C(=O)O (stereo not drawn) ?
68 °C

Could you do the same for COc1ccc(N2CCN(c3c(C)c(C)c4c(c3C)CC(C)(C)O4)CC2)cc1F , please?
161 to 163 °C

Next record, please: O=C(O)c1c2c(nc3ccc(F)cc13)-c1ccc(-c3ccccc3C(F)(F)F)cc1CCC2
> 300 °C

Same question for CCn1nc(C)c(CN(C(=O)C2CCCc3ccccc32)c2ccc(C(C)C)cc2)c1C (stereo not drawn) please.
142 to 143 °C

Now try O=C(Nc1ccccc1)N1Cc2sccc2C(O)C1 (stereo not drawn) .
200 °C

---

Reported melting point by item:

Some compounds with known melting point results, for comparison:
OC1(c2ccc(F)cc2)CCC2CNCCC2C1 (centres undefined) :: 174 to 175 °C
CC1(C(F)(F)F)OC(=O)Nc2ccc(Cl)cc21 (centres undefined) :: 216 °C
COCCOc1nc(C)nc(N2CCC(c3ccc(F)cc3)CC2)c1[N+](=O)[O-] :: 45 to 48 °C

melting point lookup needed for O=C(O)COc1cc2cc(C3CCCCC3)sc2c(Cl)c1Cl , thanks.
167 to 168 °C

---

# reported melting point; entries follow

Use these answered entries as a reference point.
N#Cc1ccc(CN2c3ccc(Cl)cc3C=C(C(=O)O)C2C(F)(F)F)cc1 (stereo unspecified) :: 258 to 260 °C
CCCCNc1c(C(=O)OCC)c(C)nc2nnsc12 :: 57 to 58 °C
O=C(NCCOCc1cccc(Cl)c1)c1c(Cl)cccc1Cl :: 70 to 72 °C
CCOc1cc(C(=O)CCCC2CCCCC2)c(O)cc1C :: 48 to 49 °C
CC(C)(C)[C@@H](CO)NS(=O)(=O)c1ccc(Cl)cc1 :: 128 to 130 °C

Name the reported melting point value associated with the compound CC(=O)NCCSCC(=O)[C@H](Cc1ccccc1)NC(=O)[C@H](CC(C)C)NC(=O)OCc1ccccc1
122 to 123 °C

---

Listing: melting point of selected compounds

Field request: melting point | item: Cc1ccc(OCc2ccccc2)c2cnn(Cc3ccccc3)c12
92 to 93 °C

Same question for OC1CSC(Oc2cncc(-c3ccc(F)cc3Cl)c2)C(O)C1O (stereo not drawn) please.
208 to 211 °C

Try the compound CCCCc1cc(C(N)=O)ccc1OCCCNc1cnn(C(C)C)c(=O)c1Cl
172 to 174 °C

---

readout_kind: melting point

Here is how some molecules turned out for melting point.
Cn1cnc2c3ncc(Cl)cc3ccc21 :: 188 to 189 °C
CCOC(=O)/C=C\n1c(=O)n2nc(C(=O)OCC)cc2c2ccc(Cl)cc21 :: 215 to 217 °C

Query molecule follows.
Given the molecule Cc1nc(N)sc1S(=O)(=O)NCCN(C)C , what is its reported melting point?
153 °C

---

readout_kind: melting point

Past entries and their recorded results:
COc1cc2c(cn1)CCCC2=NO :: 175 to 178 °C
N#Cc1ccc(Cc2ccc(-c3ccc(C#N)cn3)o2)cc1 :: 204 to 206 °C
Cc1nc(N2CCCC2)nc2c1c(=O)c(C(=O)O)cn2C1CC1 :: 253 °C

Quick one: melting point for O=C(NC(CO)CO)c1cccc(-c2ccc3c(c2)C(c2ccc(Cl)cc2Cl)CC3)c1 (stereo not drawn) ?
135 to 157 °C

---

Each item that follows carries a reported melting point.

Example results:
NC(=O)CCCCCCCCCCn1nnnc1S :: 112 to 114 °C
CCOc1cc(CO)cc(OCc2nc(-c3ccccc3)oc2C)c1 :: 103 to 104 °C
COc1cc(CCNC(=O)N(C)O)cc(OC)c1 :: 121 to 123 °C
O=C(CCCI)c1ccc(F)cc1O :: 41.4 °C
CCCCCCCc1ccccc1C=CC(=O)c1ccc(OCC=C(C)C)cc1O :: 65 to 67 °C

Okay, now this compound:
Any idea what its melting point is? The compound is CNC(=O)Cn1c(-c2ccc(Br)cc2)nc2cccnc21
258 to 259 °C

---

melting point for assorted molecules

CC(CC(O)(C(=O)O)C(F)(F)F)c1ccccc1 (stereo not given) :: 145 to 146 °C
O=C(NCC1CCCCC1)[C@@H]1CCCN(c2cccc3c2C(=O)N(Cc2ccncc2)C3=O)C1 :: 172 to 173 °C
O=[N+]([O-])c1ccc(OCC#CC#CCOc2ccc([N+](=O)[O-])cc2[N+](=O)[O-])cc1 :: 125 °C
NS(=O)(=O)c1cc2cc(C=O)sc2s1 :: 188 to 189 °C

Would you kindly look at the next entry?
Which melting point value belongs to CCCc1ccc2nc(Cl)cn2n1 ?
73.9 to 80 °C

---

readout_kind: melting point

For the compound Cc1ccc(-c2cn(C)cc(-c3ccccc3)c2=O)cc1Br , what melting point is on record?
168 to 170 °C

Quick one: Cc1nc2c(O[C@@H]3c4ccccc4C[C@H]3O)cccn2c1N=O (relative stereo)
178 to 179 °C

# iterate: COc1cc(C(=O)N2CCC(CCN3CCC(O)(c4nc5ccccc5n4Cc4ccc(F)cc4)CC3)(c3ccc(Cl)c(Cl)c3)C2)cc(OC)c1OC (stereo not drawn)
130 to 150 °C

Also, O=C(O)c1ccc(-n2cc(C3c4ccccc4C=Cc4ccccc43)c(=S)[nH]c2=O)cc1 please.
320 °C

And for N#CC(Cc1ccccc1)=NNc1ccc(C(O)(C(F)(F)F)C(F)(F)F)cc1 ?
164 to 167 °C

And the next one, Nc1cc(-c2ccc([N+](=O)[O-])c(N)c2)ccc1[N+](=O)[O-] ?
226 °C

Also CC(C)C(NC(=O)N(C)Cc1ccccn1)C(=O)NC(Cc1ccccc1)C(O)C(O)C(Cc1ccccc1)NC(=O)C(NC(=O)N(C)Cc1ccccn1)C(C)C (stereo not drawn) ?
159 to 162 °C

Try the compound CCOC(=O)C(C)(C)c1nc2ccc(OCCCN3CCC(OC(c4ccccc4)c4ccccc4)CC3)nn2c1Cl
186 to 188 °C

Same question, Cc1oc(-c2ccccc2)nc1COc1ccc(Cc2nc(-c3ccccc3)c(CCC(=O)O)o2)cc1 this time
142 to 143 °C

# repeat for CC(C)(C)OC(=O)N1CO[C@@](O[Si](C)(C)C)(C(F)(F)F)[C@@H]1Cc1ccccc1
53 to 55 °C

Subsequent entry: O=C1NCCN1c1ccc(S(=O)(=O)Nc2ccc(F)cc2)cc1
249 to 251 °C

Here is the next compound: CC(=O)c1ccc(-c2ccc(C(=O)NCCCCN3CCC(c4ccc5c(c4O)CCCC5)CC3)cc2)cc1
180 to 185 °C

// same read-out, input: C/C(=N\OC(=O)[C@@H]1CCCN(C(=O)OC(C)(C)C)C1)[C@H]1CC[C@H]2[C@@H]3CCC4=CC(=O)CC[C@]4(C)[C@H]3CC[C@]12C
79 to 81 °C

Also need OC1COC(O)C(F)(F)C1O (stereo not drawn) , thanks.
146 to 148 °C

Next compound up: Cc1nnc(-c2ccc3occ(-c4cnn(Cc5ccccn5)c4)c3c2)o1
134 to 135 °C

Now this one: N=c1nc(N)c2nc[nH]c2c(N)n1
> 200 °C

Repeat with CCOC(=O)c1c(CN(CC)CC)nc2sc3cnccc3c2c1-c1ccc(OC)c(OC)c1
163 to 165 °C

Try OC1(c2nccc3ccccc23)CCNCC1 next.
138 to 140 °C
